# Tested on: intestinal alkaline phosphatase [Mus musculus]
# ASSAY METHOD TEXT: mouse intestinal phosphatase enzyme activation – biochemical, luminescence, single concentration, confirmation (AID 434970)
# CONDITION PARAMETERS: purified mouse IAP, CDP-Star luminescence, 30 min, at 10 µM; measured here: IAP activation factor, stronger effect = higher value
The campaign covered roughly 11,000 compounds. About 310 (2.8%) were called active. This excerpt belongs to a sample that is enriched for actives.
MEASUREMENT LABEL: activation factor
Give bare numbers.

# annotated cases, reported activation factor shown
COMPOUND | EXPERIMENTAL RESULT
COc1ccc(CNC(=O)Nc2cccc(C(F)(F)F)c2)cc1OC | 2.21
CCOc1ccc(NC(=O)CN(C)CC(=O)NC2CCCc3ccccc32)cc1OCC (stereo unspecified) | 1.1
Cc1ccc(NC(=S)NCc2ccccc2)cc1S(=O)(=O)N1CCCCC1 | 2.87
Cc1ccc(C(=O)NCC(=O)O)cc1S(=O)(=O)N1CCCCC1 | 0.994
COc1ccccc1NS(=O)(=O)c1cccc(NC(=O)Nc2ccc(Cl)cc2)c1 | 1.92

Field: activation factor. Fill in for each record below.
1. Cc1cccc(NC(=O)NC2CCCc3ccccc32)c1 (stereo unspecified)
2. CCOc1ccc(NC(=O)CS(=O)CC(=O)NC2CCCc3ccccc32)cc1 (stereo unspecified)
3. O=C(CNC1CCCCCC1)Nc1ccccc1N1CCCCC1
4. FC(F)(F)c1cccc(NC(=S)NCc2ccc(Cl)cc2)c1
5. COc1ccc(NC(=S)Nc2cccc(S(=O)(=O)N3CCCCC3)c2)cc1

Result:
1: 3.36; 2: 1; 3: 1.04; 4: 1.18; 5: 1.01

Q: Write down measured activation factor (intestinal alkaline phosphatase [Mus musculus]) for this compound. COc1cccc(NC(=O)NC2CCCc3ccccc32)c1 (stereo unspecified)
Result: 2.74

The reported measurements were obtained from PubChem BioAssay AID434970.
